- System: Candida albicans
- Assay text: Potentiation of amphotericin-induced antifungal activity against Candida albicans ATCC 90029 assessed as fold reduction in amphotericin MIC at 32 ug/ml after 24 hrs by broth microdilution method relative to amphotericin MIC alone
- Assay type: functional
Non-standard residues stand in square brackets, D forms with d. Residues, ends and D or L forms follow the SMILES beside them. *: point of attachment. NMeY = CN[C@@H](Cc1ccc(O)cc1)C(=O)O; 2Abz = Nc1ccccc1C(=O)O; tBu = CC(C)(C)*
Reported Ratio values for the following compounds.
Measure: Ratio

# Compound, Measured on, Test value
records = [
    ("C[C@H](NC(=O)c1ccccc1N)C(=O)O", "Candida albicans", 4),
    ("CN[C@@H](Cc1ccc(OC(C)(C)C)cc1)C(=O)Nc1ccccc1C(=O)N[C@@H](C)C(=O)O", "Candida albicans", 2),
    ("CC(C)[C@@H]1NC(=O)[C@H](C)NC(=O)c2ccccc2NC(=O)[C@H](Cc2ccc(OC(C)(C)C)cc2)N(C)C1=O (cyclo([2Abz]AV[NMeY](tBu)))", "Candida albicans", 16),
    ("CN[C@@H](Cc1ccc(OC(C)(C)C)cc1)C(=O)Nc1ccccc1C(=O)N[C@@H](C)C(=O)N[C@H](C(=O)O)C(C)C (H-[NMeY](tBu)[2Abz]AV-OH)", "Candida albicans", 16),
    ("CC(C)[C@@H]1NC(=O)[C@H](C)NC(=O)c2ccccc2NC(=O)[C@H](Cc2ccc(O)cc2)N(C)C1=O", "Candida albicans", 16),
    ("CC(C)[C@H](N)C(=O)N(C)[C@@H](Cc1ccc(OC(C)(C)C)cc1)C(=O)Nc1ccccc1C(=O)N[C@@H](C)C(=O)O (H-V[NMeY](tBu)[2Abz]A-OH)", "Candida albicans", 8),
    ("Nc1ccccc1C(=O)O [ANTHRANILIC ACID]", "Candida albicans", 1),
]

----------
- Test system: Candida albicans
- Assay text: Potentiation of amphotericin-induced antifungal activity against Candida albicans ATCC 90029 assessed as amphotericin MIC at 32 ug/ml after 24 hrs by broth microdilution method (reference value: 0.5 ug/ml)
- Assay type: functional
- Test context: ATCC 90029, 24 h
Non-standard residues stand in square brackets, D forms with d. Residues, ends and D or L forms follow the SMILES beside them. *: point of attachment. NMeY = CN[C@@H](Cc1ccc(O)cc1)C(=O)O; 2Abz = Nc1ccccc1C(=O)O; tBu = CC(C)(C)*
Reported MIC values for the following molecules.
Measure: MIC (µg/mL)

# Molecule, Measure, Test value
rows = [
    ("CN[C@@H](Cc1ccc(OC(C)(C)C)cc1)C(=O)Nc1ccccc1C(=O)N[C@@H](C)C(=O)O", "MIC", 0.25),
    ("CN[C@@H](Cc1ccc(OC(C)(C)C)cc1)C(=O)Nc1ccccc1C(=O)N[C@@H](C)C(=O)N[C@H](C(=O)O)C(C)C (H-[NMeY](tBu)[2Abz]AV-OH)", "MIC", 0.031),
    ("CC(C)[C@@H]1NC(=O)[C@H](C)NC(=O)c2ccccc2NC(=O)[C@H](Cc2ccc(O)cc2)N(C)C1=O", "MIC", 0.031),
    ("C[C@H](NC(=O)c1ccccc1N)C(=O)O", "MIC", 0.13),
    ("CC(C)[C@H](NC(=O)[C@H](C)NC(=O)c1ccccc1N)C(=O)N(C)[C@@H](Cc1ccc(OC(C)(C)C)cc1)C(=O)O (H-[2Abz]AV[NMeY](tBu)-OH)", "MIC", 0.13),
    ("CN[C@@H](Cc1ccc(OC(C)(C)C)cc1)C(=O)Nc1ccccc1C(=O)O", "MIC", 0.13),
    ("CC(C)[C@H](N)C(=O)N(C)[C@@H](Cc1ccc(OC(C)(C)C)cc1)C(=O)Nc1ccccc1C(=O)N[C@@H](C)C(=O)O (H-V[NMeY](tBu)[2Abz]A-OH)", "MIC", 0.063),
    ("CC(C)[C@H](NC(=O)[C@H](C)N)C(=O)N(C)[C@@H](Cc1ccc(OC(C)(C)C)cc1)C(=O)Nc1ccccc1C(=O)O (H-AV[NMeY](tBu)[2Abz]-OH)", "MIC", 0.031),
    ("CC(C)[C@H]1NC(=O)[C@H](C)NC(=O)c2ccccc2NC(=O)[C@H](Cc2ccc(O)cc2)N(C)C1=O", "MIC", 0.031),
    ("CC(C)[C@@H]1NC(=O)[C@H](C)NC(=O)c2ccccc2NC(=O)[C@H](Cc2ccc(OC(C)(C)C)cc2)N(C)C1=O (cyclo([2Abz]AV[NMeY](tBu)))", "MIC", 0.031),
    ("Nc1ccccc1C(=O)O [ANTHRANILIC ACID]", "MIC", 0.5),
]

----------
Reported Ratio values for the following compounds.
- Tested on: Candida albicans
- Assay text: Potentiation of amphotericin-induced antifungal activity against Candida albicans ATCC 90029 assessed as fold reduction in amphotericin MIC at 8 ug/ml after 24 hrs by broth microdilution method relative to amphotericin MIC alone
- Assay type: functional
Non-standard residues stand in square brackets, D forms with d. Residues, ends and D or L forms follow the SMILES beside them. *: point of attachment. NMeY = CN[C@@H](Cc1ccc(O)cc1)C(=O)O; 2Abz = Nc1ccccc1C(=O)O; tBu = CC(C)(C)*
Measure: Ratio

# Compound, Measure, Test value
rows = [
    ("CC(C)[C@H](NC(=O)[C@H](C)NC(=O)c1ccccc1N)C(=O)N(C)[C@@H](Cc1ccc(OC(C)(C)C)cc1)C(=O)O (H-[2Abz]AV[NMeY](tBu)-OH)", "Ratio", 2),
    ("CC(C)[C@@H]1NC(=O)[C@H](C)NC(=O)c2ccccc2NC(=O)[C@H](Cc2ccc(O)cc2)N(C)C1=O", "Ratio", 4),
    ("CN[C@@H](Cc1ccc(OC(C)(C)C)cc1)C(=O)Nc1ccccc1C(=O)N[C@@H](C)C(=O)N[C@H](C(=O)O)C(C)C (H-[NMeY](tBu)[2Abz]AV-OH)", "Ratio", 4),
    ("CC(C)[C@@H]1NC(=O)[C@H](C)NC(=O)c2ccccc2NC(=O)[C@H](Cc2ccc(OC(C)(C)C)cc2)N(C)C1=O (cyclo([2Abz]AV[NMeY](tBu)))", "Ratio", 4),
    ("CC(C)[C@H](N)C(=O)N(C)[C@@H](Cc1ccc(OC(C)(C)C)cc1)C(=O)Nc1ccccc1C(=O)N[C@@H](C)C(=O)O (H-V[NMeY](tBu)[2Abz]A-OH)", "Ratio", 2),
    ("CC(C)[C@H]1NC(=O)[C@H](C)NC(=O)c2ccccc2NC(=O)[C@H](Cc2ccc(O)cc2)N(C)C1=O", "Ratio", 4),
]

----------
- Tested on: Candida albicans
- Assay text: Potentiation of amphotericin-induced antifungal activity against Candida albicans ATCC 90029 assessed as amphotericin MIC at 16 ug/ml after 24 hrs by broth microdilution method (reference value: 0.5 ug/ml)
- Type: functional
- Test context: ATCC 90029, 24 h
Non-standard residues stand in square brackets, D forms with d. Residues, ends and D or L forms follow the SMILES beside them. *: point of attachment. NMeY = CN[C@@H](Cc1ccc(O)cc1)C(=O)O; 2Abz = Nc1ccccc1C(=O)O; tBu = CC(C)(C)*
Measure: MIC (µg/mL)

# Molecule, Measure, Unit label, Test value
measured = [
    ("CC(C)[C@@H]1NC(=O)[C@H](C)NC(=O)c2ccccc2NC(=O)[C@H](Cc2ccc(OC(C)(C)C)cc2)N(C)C1=O (cyclo([2Abz]AV[NMeY](tBu)))", "MIC", "µg/mL", 0.063),
    ("CC(C)[C@H](NC(=O)[C@H](C)N)C(=O)N(C)[C@@H](Cc1ccc(OC(C)(C)C)cc1)C(=O)Nc1ccccc1C(=O)O (H-AV[NMeY](tBu)[2Abz]-OH)", "MIC", "µg/mL", 0.031),
    ("CC(C)[C@H](NC(=O)[C@H](C)NC(=O)c1ccccc1N)C(=O)N(C)[C@@H](Cc1ccc(OC(C)(C)C)cc1)C(=O)O (H-[2Abz]AV[NMeY](tBu)-OH)", "MIC", "µg/mL", 0.13),
    ("CC(C)[C@H]1NC(=O)[C@H](C)NC(=O)c2ccccc2NC(=O)[C@H](Cc2ccc(O)cc2)N(C)C1=O", "MIC", "µg/mL", 0.063),
    ("CC(C)[C@H](N)C(=O)N(C)[C@@H](Cc1ccc(OC(C)(C)C)cc1)C(=O)Nc1ccccc1C(=O)N[C@@H](C)C(=O)O (H-V[NMeY](tBu)[2Abz]A-OH)", "MIC", "µg/mL", 0.13),
    ("CC(C)[C@@H]1NC(=O)[C@H](C)NC(=O)c2ccccc2NC(=O)[C@H](Cc2ccc(O)cc2)N(C)C1=O", "MIC", "µg/mL", 0.063),
    ("CN[C@@H](Cc1ccc(OC(C)(C)C)cc1)C(=O)Nc1ccccc1C(=O)N[C@@H](C)C(=O)N[C@H](C(=O)O)C(C)C (H-[NMeY](tBu)[2Abz]AV-OH)", "MIC", "µg/mL", 0.063),
]
